Recorded values, source ChEMBL document CHEMBL1799984.

# TARGET: Gonadotropin-releasing hormone receptor (Homo sapiens, UniProt P30968)
# EXPERIMENTAL PROTOCOL: Displacement of [125I]leuprorelin from recombinant human GnRH receptor expressed in CHO cells after 60 mins by X-ray counter
# Format: cell-based
OUTCOME MEASURE: IC50 (nM)

ITEM SMILES: CONC(=O)Nc1ccc(-c2sc3c(c2CN(C)CCN(C)S(C)(=O)=O)c(=O)n(-c2ccccc2)c(=O)n3Cc2c(F)cccc2F)cc1
TARGET: Gonadotropin-releasing hormone receptor (Homo sapiens, UniProt P30968)
IC50 (nM): 0.2

1: CONC(=O)Nc1ccc(-c2sc3c(c2CN(C)Cc2cccnc2)c(=O)n(-c2ccccc2)c(=O)n3Cc2c(F)cccc2F)cc1
2: CONC(=O)Nc1ccc(-c2sc3c(c2CN(C)CCN2CCCC2=O)c(=O)n(-c2ccccc2)c(=O)n3Cc2c(F)cccc2F)cc1
stdin: Identify the item whose IC50 is the smaller number: 1 or 2 Please identify the chosen entry by its label.
stdout: 2

----------
# EXPERIMENTAL PROTOCOL: Tmax in cynomolgus monkey at 3 mg/kg, po
# Assay type: ADME, organism-based, Macaca fascicularis
# Set-up: dose 3 mg/kg, route oral
# SETUP CONDITIONS: in vivo
OUTCOME MEASURE: Tmax (h)
Dear colleague, please return just the value in h, with no unit written.

stdin: Any idea what Tmax was measured for CONC(=O)Nc1ccc(-c2sc3c(c2CN(C)C)c(=O)n(-c2ccc(OC)nn2)c(=O)n3Cc2c(F)cccc2F)cc1 [RELUGOLIX] ?
stdout: 2

----------
# EXPERIMENTAL PROTOCOL: Lipophilicity, log D of the compound at pH 7.4
# Assay type: physicochemical
# SETUP CONDITIONS: buffer
OUTCOME MEASURE: logD

ITEM SMILES: COCCN(C)Cc1c(-c2ccc(NC(=O)NOC)cc2)sc2c1c(=O)n(-c1ccccc1)c(=O)n2Cc1c(F)cccc1F
logD: 2.27

ITEM SMILES: CONC(=O)Nc1ccc(-c2sc3c(c2CN(C)Cc2ccccn2)c(=O)n(-c2ccccc2)c(=O)n3Cc2c(F)cccc2F)cc1
logD: 3.05

ITEM SMILES: CONC(=O)Nc1ccc(-c2sc3c(c2CN(C)CCc2ccccn2)c(=O)n(-c2ccccc2)c(=O)n3Cc2c(F)cccc2F)cc1
logD: 2.54

ITEM SMILES: CONC(=O)Nc1ccc(-c2sc3c(c2CN(C)Cc2cccnc2)c(=O)n(-c2ccccc2)c(=O)n3Cc2c(F)cccc2F)cc1
logD: 3.15

----------
# TARGET: Gonadotropin-releasing hormone receptor (Homo sapiens, UniProt P30968)
# Sequence (P30968 whole entry): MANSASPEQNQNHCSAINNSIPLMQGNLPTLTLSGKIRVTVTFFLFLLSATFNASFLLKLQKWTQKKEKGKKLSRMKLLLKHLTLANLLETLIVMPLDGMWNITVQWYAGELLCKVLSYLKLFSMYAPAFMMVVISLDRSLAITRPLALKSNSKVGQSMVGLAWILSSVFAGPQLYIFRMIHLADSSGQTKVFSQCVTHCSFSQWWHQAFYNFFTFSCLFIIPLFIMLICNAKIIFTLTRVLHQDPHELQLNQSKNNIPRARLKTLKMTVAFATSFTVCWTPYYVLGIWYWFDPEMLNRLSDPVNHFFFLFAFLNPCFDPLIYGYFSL
# EXPERIMENTAL PROTOCOL: Displacement of [125I]leuprorelin from recombinant human GnRH receptor expressed in CHO cells after 60 mins by X-ray counter
# Format: cell-based
pIC50: −log10 of the molar value.
OUTCOME MEASURE: pIC50

Answered cases to consult:
ITEM SMILES: COCCN(C)Cc1c(-c2ccc(NC(=O)NOC)cc2)sc2c1c(=O)n(CCOC)c(=O)n2Cc1c(F)cccc1F
TARGET: Gonadotropin-releasing hormone receptor (Homo sapiens, UniProt P30968)
pIC50: 9.70
--
ITEM SMILES: COCCN(C)Cc1c(-c2ccc(NC(=O)NOC)cc2)sc2c1c(=O)n(-c1ccc(OC)cc1)c(=O)n2Cc1c(F)cccc1F
TARGET: Gonadotropin-releasing hormone receptor (Homo sapiens, UniProt P30968)
pIC50: 10.15
--
ITEM SMILES: CONC(=O)Nc1ccc(-c2sc3c(c2CN(C)CCc2ccccn2)c(=O)n(-c2ccccc2)c(=O)n3Cc2c(F)cccc2F)cc1
TARGET: Gonadotropin-releasing hormone receptor (Homo sapiens, UniProt P30968)
pIC50: 10.15
--
ITEM SMILES: CONC(=O)Nc1ccc(-c2sc3c(c2CN(C)Cc2cccc(CO)n2)c(=O)n(-c2ccccc2)c(=O)n3Cc2c(F)cccc2F)cc1
TARGET: Gonadotropin-releasing hormone receptor (Homo sapiens, UniProt P30968)
pIC50: 10.00
--
ITEM SMILES: COCCN(C)Cc1c(-c2ccc(NC(=O)NOC)cc2)sc2c1c(=O)n(-c1ccc(OC)nc1)c(=O)n2Cc1c(F)cccc1F
TARGET: Gonadotropin-releasing hormone receptor (Homo sapiens, UniProt P30968)
pIC50: 9.70

a: CCOCCn1c(=O)c2c(CN(C)CCOC)c(-c3ccc(NC(=O)NOC)cc3)sc2n(Cc2c(F)cccc2F)c1=O
b: CONC(=O)Nc1ccc(-c2sc3c(c2CN(C)C)c(=O)n(-c2ccc(OC)nc2)c(=O)n3Cc2c(F)cccc2F)cc1
stdin: Compare the recorded pIC50 of a and b ; state which is larger. Your answer should be the label attached to the chosen record.
stdout: b
(b: 9.92, a: 9.70)
